assay info: Clearance in iv dosed dog
Type: ADME, organism-based, Canis lupus familiaris
measurement setup: in vivo
quantity: clearance (mL/min/kg)

| test smiles | measured value |
| --- | --- |
| O=C(NC1(c2ccccc2)CC1)c1c(CN2CCC(N3CCCCC3)CC2)c(-c2cccc(C(F)(F)F)c2)nc2cc(Br)ccc12 | 6.9 |

###

assay info: Cmax in Beagle dog at 3 mg/kg, iv administered as infusion
Type: ADME, organism-based, Canis lupus familiaris
Set-up: dose 3 mg/kg, route intravenous
measurement setup: in vivo
quantity: Cmax (µM)

| test smiles | measured value |
| --- | --- |
| C[C@H](NC(=O)c1c(CN2CCC(N3CCCCC3)CC2)c(-c2cccc(C(F)(F)F)c2)nc2ccccc12)c1ccccc1 | 20 |

###

# IC50 values compiled below
test system: Transient receptor potential cation channel subfamily V member 4 (Rattus norvegicus)
Sequence (Q9ERZ8 whole entry): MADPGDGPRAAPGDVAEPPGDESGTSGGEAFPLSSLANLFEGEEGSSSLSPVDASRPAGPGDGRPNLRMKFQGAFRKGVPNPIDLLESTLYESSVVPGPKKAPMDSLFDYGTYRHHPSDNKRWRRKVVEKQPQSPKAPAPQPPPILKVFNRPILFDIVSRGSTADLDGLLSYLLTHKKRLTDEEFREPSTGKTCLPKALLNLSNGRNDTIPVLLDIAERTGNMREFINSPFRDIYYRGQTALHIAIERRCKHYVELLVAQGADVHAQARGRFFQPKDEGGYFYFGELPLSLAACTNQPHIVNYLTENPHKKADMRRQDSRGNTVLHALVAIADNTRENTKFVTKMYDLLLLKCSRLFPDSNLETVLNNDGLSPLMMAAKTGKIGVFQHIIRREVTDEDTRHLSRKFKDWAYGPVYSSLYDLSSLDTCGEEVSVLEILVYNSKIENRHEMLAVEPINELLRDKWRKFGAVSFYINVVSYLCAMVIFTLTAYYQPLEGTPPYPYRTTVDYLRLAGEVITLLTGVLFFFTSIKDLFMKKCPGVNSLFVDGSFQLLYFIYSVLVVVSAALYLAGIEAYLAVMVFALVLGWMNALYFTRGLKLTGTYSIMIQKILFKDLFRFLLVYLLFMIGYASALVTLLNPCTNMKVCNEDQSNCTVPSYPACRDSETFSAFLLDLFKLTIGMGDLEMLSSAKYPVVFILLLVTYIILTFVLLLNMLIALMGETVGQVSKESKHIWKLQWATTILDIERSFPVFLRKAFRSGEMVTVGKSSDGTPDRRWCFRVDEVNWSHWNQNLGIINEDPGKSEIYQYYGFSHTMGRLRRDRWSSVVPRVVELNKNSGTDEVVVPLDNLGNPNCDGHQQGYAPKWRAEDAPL
assay info: Antagonist activity at rat TRPV4 expressed in HEK293 cells assessed as inhibition of GSK634775A-induced calcium influx preincubated for 10 mins followed by GSK634775A addition by […] dye based FLIPR assay
Format: cell-based

| test smiles | IC50, nM |
| --- | --- |
| CC(C)[C@H](NC(=O)c1c(CN2CCC(N3CCCCC3)CC2)c(-c2cccc(C(F)(F)F)c2)nc2ccccc12)c1ccccc1 | 25 |
| C[C@H](NC(=O)c1c(CN2CCC(N3CCCCC3)CC2)c(-c2cccc(C(F)(F)F)c2)nc2ccccc12)c1ccccc1 | 2.5 |
| O=C(N[C@H](c1ccccc1)C(F)(F)F)c1c(CN2CCC(N3CCCCC3)CC2)c(-c2cccc(C(F)(F)F)c2)nc2ccccc12 | 2.5 |
| COc1ccc(-c2nc3ccccc3c(C(=O)N[C@@H](C)c3ccccc3)c2CN2CCC(N3CCCCC3)CC2)cc1 | 320 |
| O=C(N[C@H](c1ccccc1)C(F)(F)F)c1c(CN2CCC(N3CCCCC3)CC2)c(-c2cccc(C(F)(F)F)c2)nc2ccc(Br)cc12 | 2.5 |
| C[C@@H](NC(=O)c1c(CN2CCC(N3CCCCC3)CC2)c(-c2ccccc2)nc2ccccc12)c1ccccc1 | 630 |
| CC[C@H](NC(=O)c1c(CN2CCC(N3CCCCC3)CC2)c(-c2cccc(C(F)(F)F)c2)nc2ccccc12)c1ccccc1 | 6 |

###

test system: Nuclear receptor subfamily 1 group I member 2 (Homo sapiens, UniProt O75469)
Sequence (O75469 whole entry): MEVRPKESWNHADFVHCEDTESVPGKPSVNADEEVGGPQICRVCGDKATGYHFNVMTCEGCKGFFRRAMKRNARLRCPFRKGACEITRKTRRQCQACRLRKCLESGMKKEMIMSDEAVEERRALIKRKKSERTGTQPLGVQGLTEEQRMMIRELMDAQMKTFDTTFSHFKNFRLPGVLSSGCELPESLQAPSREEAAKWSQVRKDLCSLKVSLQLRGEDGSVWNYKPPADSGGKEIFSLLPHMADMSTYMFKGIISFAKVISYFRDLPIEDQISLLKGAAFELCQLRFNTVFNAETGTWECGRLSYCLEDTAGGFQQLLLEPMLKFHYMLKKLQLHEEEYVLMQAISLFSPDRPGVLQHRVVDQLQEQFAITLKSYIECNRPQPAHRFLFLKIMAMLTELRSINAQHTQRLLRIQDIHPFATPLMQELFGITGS
assay info: Activation of PXR (unknown origin)
pEC50: −log10 of the molar value.

| test smiles | pEC50 |
| --- | --- |
| CCOc1ccc2c(C(=O)N[C@H](c3ccccc3)C(F)(F)F)c(CN3CCC(N4CCCCC4)CC3)c(-c3cccc(C(F)(F)F)c3)nc2c1 | 5.89 |

###

assay info: Clearance in Sprague-Dawley rat
Type: ADME
measurement setup: in vivo
The compounds listed here are annotated with their clearance.

| test smiles | clearance [mL/min/kg] |
| --- | --- |
| C[C@H](NC(=O)c1c(CN2CCC(N3CCCCC3)CC2)c(-c2cccc(C(F)(F)F)c2)nc2ccccc12)c1ccccc1 | 25 |
| C[C@H](NC(=O)c1c(CN2CCC(N3CCCCC3)CC2)c(-c2ccccc2)nc2ccccc12)c1ccccc1 | 52 |

###

assay info: Half life in po dosed rat
Assay type: ADME, organism-based
measurement setup: in vivo

| test smiles | half-life / min |
| --- | --- |
| O=C(NC1(c2ccccc2)CC1)c1c(CN2CCC(N3CCCCC3)CC2)c(-c2cccc(C(F)(F)F)c2)nc2cc(Br)ccc12 | 600 |

###

test system: Transient receptor potential cation channel subfamily V member 4 (Homo sapiens, UniProt Q9HBA0)
Sequence (Q9HBA0 whole entry): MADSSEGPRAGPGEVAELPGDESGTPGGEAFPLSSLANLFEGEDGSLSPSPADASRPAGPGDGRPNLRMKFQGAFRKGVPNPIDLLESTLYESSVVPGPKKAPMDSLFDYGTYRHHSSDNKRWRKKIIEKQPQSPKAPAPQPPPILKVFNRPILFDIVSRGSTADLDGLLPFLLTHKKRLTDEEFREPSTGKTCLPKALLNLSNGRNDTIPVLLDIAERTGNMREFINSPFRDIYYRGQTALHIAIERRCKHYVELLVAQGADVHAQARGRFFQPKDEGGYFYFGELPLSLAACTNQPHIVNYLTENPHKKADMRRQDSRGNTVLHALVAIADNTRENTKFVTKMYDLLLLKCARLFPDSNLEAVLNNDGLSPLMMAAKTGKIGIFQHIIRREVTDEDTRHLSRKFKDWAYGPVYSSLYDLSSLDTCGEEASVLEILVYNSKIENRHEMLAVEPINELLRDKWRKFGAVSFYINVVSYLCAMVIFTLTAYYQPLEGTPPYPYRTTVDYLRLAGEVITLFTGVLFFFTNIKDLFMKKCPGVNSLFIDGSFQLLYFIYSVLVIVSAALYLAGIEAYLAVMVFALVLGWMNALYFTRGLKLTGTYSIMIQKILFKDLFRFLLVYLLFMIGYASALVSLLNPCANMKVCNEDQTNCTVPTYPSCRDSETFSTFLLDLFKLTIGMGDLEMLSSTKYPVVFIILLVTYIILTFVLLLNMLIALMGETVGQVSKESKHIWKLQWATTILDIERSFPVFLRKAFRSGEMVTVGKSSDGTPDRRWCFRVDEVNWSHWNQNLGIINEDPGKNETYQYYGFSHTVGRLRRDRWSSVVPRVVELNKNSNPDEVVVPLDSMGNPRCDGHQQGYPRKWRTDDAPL
assay info: Antagonist activity at human TRPV4 expressed in HEK293 cells assessed as inhibition of GSK634775A-induced calcium influx preincubated for 10 mins followed by GSK634775A addition by […] dye based FLIPR assay
Format: cell-based
pIC50: −log10 of the molar value.
Outcome label depends on pIC50 relative to 7: at/above gives rule met, below gives rule not met.

| test smiles | qualitative label |
| --- | --- |
| C[C@H](NC(=O)c1c(CN2CCC(N3CCCCC3)CC2)c(-c2cccc(Cl)c2)nc2ccccc12)c1ccccc1 | rule not met |
| C[C@@H](NC(=O)c1c(CN2CCC(N3CCCCC3)CC2)c(-c2ccccc2)nc2ccccc12)c1ccccc1 | rule not met |
| C[C@H](NC(=O)c1c(CN2CCC(N3CCNCC3)CC2)c(-c2cccc(C(F)(F)F)c2)nc2ccccc12)c1ccccc1 | rule not met |
| O=C(NC1(c2ccccc2)CC1)c1c(CN2CCC(N3CCCCC3)CC2)c(-c2cccc(C(F)(F)F)c2)nc2cc(Br)ccc12 | rule met |
| COc1ccc(-c2nc3ccccc3c(C(=O)N[C@@H](C)c3ccccc3)c2CN2CCC(N3CCCCC3)CC2)cc1 | rule not met |
| O=C(NC1(c2ccccc2)CC1)c1c(CN2CCC(N3CCCCC3)CC2)c(-c2cccc(C(F)(F)F)c2)nc2ccccc12 | rule met |
| Cc1ccc(-c2nc3ccccc3c(C(=O)N[C@@H](C)c3ccccc3)c2CN2CCC(N3CCCCC3)CC2)cc1 | rule not met |
| C[C@@H](NC(=O)c1c(CN2CCC(N3CCCCC3)CC2)c(-c2cccc(C(F)(F)F)c2)nc2ccccc12)c1ccccc1 | rule not met |
| C[C@H](NC(=O)c1c(CN2CCC(N(C)C)CC2)c(-c2cccc(C(F)(F)F)c2)nc2ccccc12)c1ccccc1 | rule not met |
| COc1ccc2c(C(=O)NC3(c4ccccc4)CC3)c(CN3CCC(N4CCCCC4)CC3)c(-c3cccc(C(F)(F)F)c3)nc2c1 | rule not met |

###

Examples of compounds with documented IC50 follow.
test system: Substance-K receptor (Homo sapiens)
Sequence (P21452 whole entry): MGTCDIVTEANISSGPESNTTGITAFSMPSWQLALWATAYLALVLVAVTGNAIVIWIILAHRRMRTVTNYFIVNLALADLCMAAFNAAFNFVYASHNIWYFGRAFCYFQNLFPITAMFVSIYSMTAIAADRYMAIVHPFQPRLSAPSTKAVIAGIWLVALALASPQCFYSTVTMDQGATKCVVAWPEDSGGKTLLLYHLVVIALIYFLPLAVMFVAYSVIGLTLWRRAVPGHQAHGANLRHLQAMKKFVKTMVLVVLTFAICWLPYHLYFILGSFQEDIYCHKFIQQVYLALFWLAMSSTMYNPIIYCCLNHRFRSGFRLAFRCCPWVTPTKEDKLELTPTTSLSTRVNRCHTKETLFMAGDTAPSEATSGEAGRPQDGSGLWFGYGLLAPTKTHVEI
assay info: Inhibition of NK2 receptor (unknown origin) by FLIPR assay

| test smiles | IC50, nM |
| --- | --- |
| C[C@H](NC(=O)c1c(CN2CCC(N3CCCCC3)CC2)c(-c2cccc(C(F)(F)F)c2)nc2ccccc12)c1ccccc1 | 1300 |
| C[C@H](NC(=O)c1c(CN2CCC(N3CCCCC3)CC2)c(-c2ccccc2)nc2ccccc12)c1ccccc1 | 100 |

###

test system: UniProt:Q7Z2W7
Sequence (Q7Z2W7 whole entry): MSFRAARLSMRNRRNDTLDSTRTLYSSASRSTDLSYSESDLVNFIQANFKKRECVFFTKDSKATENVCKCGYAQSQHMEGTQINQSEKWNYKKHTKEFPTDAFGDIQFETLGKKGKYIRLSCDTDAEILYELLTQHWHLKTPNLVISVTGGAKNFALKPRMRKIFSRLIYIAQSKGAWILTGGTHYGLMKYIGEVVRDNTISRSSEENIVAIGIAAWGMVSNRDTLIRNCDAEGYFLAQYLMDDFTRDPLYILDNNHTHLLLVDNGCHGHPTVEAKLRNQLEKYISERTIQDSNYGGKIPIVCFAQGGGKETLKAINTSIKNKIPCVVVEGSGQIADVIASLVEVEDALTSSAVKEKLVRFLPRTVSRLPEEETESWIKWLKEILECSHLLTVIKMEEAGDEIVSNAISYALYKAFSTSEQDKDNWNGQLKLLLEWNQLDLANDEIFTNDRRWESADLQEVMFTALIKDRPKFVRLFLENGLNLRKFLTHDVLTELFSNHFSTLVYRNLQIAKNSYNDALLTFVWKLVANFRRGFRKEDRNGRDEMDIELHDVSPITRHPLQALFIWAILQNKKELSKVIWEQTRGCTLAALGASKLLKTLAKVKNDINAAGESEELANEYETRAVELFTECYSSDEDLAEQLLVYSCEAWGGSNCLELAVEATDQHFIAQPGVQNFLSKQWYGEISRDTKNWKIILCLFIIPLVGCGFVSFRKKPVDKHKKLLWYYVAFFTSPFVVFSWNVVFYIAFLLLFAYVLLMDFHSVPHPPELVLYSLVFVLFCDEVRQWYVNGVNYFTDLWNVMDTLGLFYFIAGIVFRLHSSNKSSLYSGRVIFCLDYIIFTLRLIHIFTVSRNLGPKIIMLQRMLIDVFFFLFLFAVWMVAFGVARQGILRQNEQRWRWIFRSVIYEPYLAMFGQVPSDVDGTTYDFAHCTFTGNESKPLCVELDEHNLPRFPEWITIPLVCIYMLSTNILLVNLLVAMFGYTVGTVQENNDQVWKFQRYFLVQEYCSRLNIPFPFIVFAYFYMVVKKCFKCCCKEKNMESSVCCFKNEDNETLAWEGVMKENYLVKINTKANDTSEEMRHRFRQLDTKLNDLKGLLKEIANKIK

| test smiles | IC50 |
| --- | --- |
| O=C(NC1(c2ccccc2)CC1)c1c(CN2CCC(N3CCCCC3)CC2)c(-c2cccc(C(F)(F)F)c2)nc2cc(Br)ccc12 | > 25 µM |

###

test system: Voltage-dependent L-type calcium channel subunit alpha-1C (Homo sapiens)
assay info: Inhibition of Cav1.2 (unknown origin) by patchXpress electrophysiology assay
quantity: IC50 (µM)

| test smiles | readout unit | measured value |
| --- | --- | --- |
| C[C@H](NC(=O)c1c(CN2CCC(N3CCCCC3)CC2)c(-c2cccc(C(F)(F)F)c2)nc2ccccc12)c1ccccc1 | µM | 4.5 |

###

Test system: Plasma
assay info: Terminal plasma concentration in TRPV4 knockout Balb/c mouse at 30 mg/kg, iv administered as infusion
Assay type: ADME, organism-based
measurement setup: in vivo, read-out: Cp(T)
quantity: concentration

| test smiles | quantity | measured value |
| --- | --- | --- |
| C[C@H](NC(=O)c1c(CN2CCC(N3CCCCC3)CC2)c(-c2cccc(C(F)(F)F)c2)nc2ccccc12)c1ccccc1 | concentration | 10 to 11 µM |

###

assay info: Cmax in Beagle dog at 1 mg/kg, iv administered as infusion
Type: ADME, organism-based, Canis lupus familiaris
Parameters: dose 1 mg/kg, route intravenous
measurement setup: in vivo

| test smiles | Cmax [µM] |
| --- | --- |
| C[C@H](NC(=O)c1c(CN2CCC(N3CCCCC3)CC2)c(-c2cccc(C(F)(F)F)c2)nc2ccccc12)c1ccccc1 | 7 |

###

assay info: Oral bioavailability in Sprague-Dawley rat
Format: ADME, organism-based
measurement setup: in vivo

| test smiles | bioavailability / % |
| --- | --- |
| C[C@H](NC(=O)c1c(CN2CCC(N3CCCCC3)CC2)c(-c2cccc(C(F)(F)F)c2)nc2ccccc12)c1ccccc1 | 100 |

###

test system: UniProt Q9HBA0
assay info: Antagonist activity at human TRPV4 expressed in HEK293 cells assessed as inhibition of GSK634775A-induced calcium influx preincubated for 10 mins followed by GSK634775A addition by […] dye based FLIPR assay
Format: cell-based
IC50 values by entry

| test smiles | result modifier | IC50 [nM] |
| --- | --- | --- |
| Cc1cccc(-c2nc3ccccc3c(C(=O)N[C@@H](C)c3ccccc3)c2CN2CCC(N3CCCCC3)CC2)c1 | = | 500 |
| O=C(NCc1ccccc1)c1c(CN2CCC(N3CCCCC3)CC2)c(-c2cccc(C(F)(F)F)c2)nc2ccccc12 | = | 500 |
| CCOc1ccc2c(C(=O)N[C@H](c3ccccc3)C(F)(F)F)c(CN3CCC(N4CCCCC4)CC3)c(-c3cccc(C(F)(F)F)c3)nc2c1 | = | 10 |
| C[C@H](NC(=O)c1c(CN2CCC(N3CCCCC3)CC2)c(-c2ccc(C(F)(F)F)cc2)nc2ccccc12)c1ccccc1 | = | 400 |
| CC(C)(NC(=O)c1c(CN2CCC(N3CCCCC3)CC2)c(-c2cccc(C(F)(F)F)c2)nc2ccccc12)c1ccccc1 | = | 1000 |
| O=C(N[C@H](c1ccccc1)C(F)(F)F)c1c(CN2CCC(N3CCCCC3)CC2)c(-c2cccc(C(F)(F)F)c2)nc2cc(Br)ccc12 | = | 60 |
| C[C@H](NC(=O)c1c(CN2CCC(N3CCCCC3)CC2)c(-c2ccccc2)nc2ccccc12)c1ccccc1 | = | 2000 |
| C[C@H](NC(=O)c1c(CN2CCCCC2)c(-c2cccc(C(F)(F)F)c2)nc2ccccc12)c1ccccc1 | > | 25000 |
| O=C(N[C@H](c1ccccc1)C(F)(F)F)c1c(CN2CCC(N3CCCCC3)CC2)c(-c2cccc(C(F)(F)F)c2)nc2ccc(Br)cc12 | = | 60 |
| O=C(N[C@H](c1ccccc1)C(F)(F)F)c1c(CN2CCC(N3CCCCC3)CC2)c(-c2cccc(C(F)(F)F)c2)nc2ccccc12 | = | 40 |
| C[C@H](NC(=O)c1c(CN2CCC(N3CCCCC3)CC2)c(-c2ccc(Cl)cc2)nc2ccccc12)c1ccccc1 | = | 320 |
| C[C@H](NC(=O)c1c(CN2CCC(N3CCOCC3)CC2)c(-c2cccc(C(F)(F)F)c2)nc2ccccc12)c1ccccc1 | = | 50 |
| COc1ccc2c(C(=O)N[C@H](c3ccccc3)C(F)(F)F)c(CN3CCC(N4CCCCC4)CC3)c(-c3cccc(C(F)(F)F)c3)nc2c1 | = | 50 |
| COc1cccc(-c2nc3ccccc3c(C(=O)N[C@@H](C)c3ccccc3)c2CN2CCC(N3CCCCC3)CC2)c1 | = | 3980 |
| C[C@H](NC(=O)c1c(CN2CCC(C3CCCCC3)CC2)c(-c2cccc(C(F)(F)F)c2)nc2ccccc12)c1ccccc1 | > | 25000 |
